Recorded values, source paper PMC6721120.

assay-explanation: Haemolysis test
Format: cell-based, Sprague Dawley rats
particulars: Sprague-Dawley, rat, isolated erythrocytes (2% haematocrit suspension); 100 μg/mL, 37 °C, 60 min; read-out: Haemolysis Rate (%)
recorded-endpoint: hemolysis at 60 min, 100 μg/mL (%)
I only need the number, in %, no unit after it.

Req: I have this compound here, CC1(C)CC[C@]2(C(=O)O[C@@H]3O[C@H](CO)[C@@H](O)[C@H](O)[C@H]3O)CC[C@]3(C)C(=CC[C@@H]4[C@@]5(C)CC[C@H](O[C@@H]6O[C@H](C(=O)O)[C@@H](O)[C@H](O)[C@H]6O[C@@H]6O[C@H](CO)[C@@H](O)[C@H](O)[C@H]6O)C(C)(C)[C@@H]5CC[C@]43C)[C@@H]2C1 [Ro, ginsenoside Ro] , and I need its recorded hemolysis at 60 min, 100 μg/mL.
Resp: 0.31

====

assay-explanation: Haemolysis test
Format: cell-based, Sprague Dawley rats
particulars: Sprague-Dawley, rat, isolated erythrocytes (2% haematocrit suspension); 30 μg/mL, 37 °C, 60 min; read-out: Haemolysis Rate (%)
recorded-endpoint: hemolysis at 60 min, 30 μg/mL (%)
Express it in %; write the number only.

Req: State the recorded hemolysis at 60 min, 30 μg/mL for this entry: CC1(C)CC[C@]2(C(=O)O[C@@H]3O[C@H](CO)[C@@H](O)[C@H](O)[C@H]3O)CC[C@]3(C)C(=CC[C@@H]4[C@@]5(C)CC[C@H](O[C@@H]6O[C@H](C(=O)O)[C@@H](O)[C@H](O)[C@H]6O[C@@H]6O[C@H](CO)[C@@H](O)[C@H](O)[C@H]6O)C(C)(C)[C@@H]5CC[C@]43C)[C@@H]2C1 [Ro, ginsenoside Ro]
Resp: 0.15

====

assay-explanation: Haemolysis test
Type: cell-based, Sprague Dawley rats
particulars: Sprague-Dawley, rat, isolated erythrocytes (2% haematocrit suspension); 1 μg/mL, 37 °C, 60 min; read-out: Haemolysis Rate (%)
recorded-endpoint: hemolysis at 60 min, 1 μg/mL (%)
Answer format: numeric, % implied, no suffix.

Req: What value of measured hemolysis at 60 min, 1 μg/mL is listed for CC1(C)CC[C@]2(C(=O)O[C@@H]3O[C@H](CO)[C@@H](O)[C@H](O)[C@H]3O)CC[C@]3(C)C(=CC[C@@H]4[C@@]5(C)CC[C@H](O[C@@H]6O[C@H](C(=O)O)[C@@H](O)[C@H](O)[C@H]6O[C@@H]6O[C@H](CO)[C@@H](O)[C@H](O)[C@H]6O)C(C)(C)[C@@H]5CC[C@]43C)[C@@H]2C1 [Ro, ginsenoside Ro] ?
Resp: 0.15

====

assay-explanation: Haemolysis test
Format: cell-based, Sprague Dawley rats
particulars: Sprague-Dawley, rat, isolated erythrocytes (2% haematocrit suspension); 3 μg/mL, 37 °C, 60 min; read-out: Haemolysis Rate (%)
recorded-endpoint: hemolysis at 60 min, 3 μg/mL (%)
Record the value in %, omitting the unit from your answer.

Req: Fill in the blank: the reported hemolysis at 60 min, 3 μg/mL of CC1(C)CC[C@]2(C(=O)O[C@@H]3O[C@H](CO)[C@@H](O)[C@H](O)[C@H]3O)CC[C@]3(C)C(=CC[C@@H]4[C@@]5(C)CC[C@H](O[C@@H]6O[C@H](C(=O)O)[C@@H](O)[C@H](O)[C@H]6O[C@@H]6O[C@H](CO)[C@@H](O)[C@H](O)[C@H]6O)C(C)(C)[C@@H]5CC[C@]43C)[C@@H]2C1 [Ro, ginsenoside Ro] is ____.
Resp: 0.31

====

assay-explanation: Haemolysis test
Assay type: cell-based, Sprague Dawley rats
particulars: Sprague-Dawley, rat, isolated erythrocytes (2% haematocrit suspension); 10 μg/mL, 37 °C, 60 min; read-out: Haemolysis Rate (%)
recorded-endpoint: hemolysis at 60 min, 10 μg/mL (%)
Field format: number, assumed %, no unit text.

Req: Data request, read-out hemolysis at 60 min, 10 μg/mL, for CC1(C)CC[C@]2(C(=O)O[C@@H]3O[C@H](CO)[C@@H](O)[C@H](O)[C@H]3O)CC[C@]3(C)C(=CC[C@@H]4[C@@]5(C)CC[C@H](O[C@@H]6O[C@H](C(=O)O)[C@@H](O)[C@H](O)[C@H]6O[C@@H]6O[C@H](CO)[C@@H](O)[C@H](O)[C@H]6O)C(C)(C)[C@@H]5CC[C@]43C)[C@@H]2C1 [Ro, ginsenoside Ro]
Resp: 0.23
